Numbers sourced from paper PMC11947346.

assay: in vivo
experimental-context: Balb/c nu/nu, mouse, pancreas, 48 pmol, total radioactivity
measurement-type: tissue uptake at 2 h

compound="CC1=NNC(c2ccc(CNC(=O)c3ccc(F)nc3)cc2)=C2CCC[C@H](OC(=O)NCCOCCOCCC(=O)N[C@H](Cc3ccccc3)C(=O)N[C@@H](CCC(N)=O)C(=O)N[C@@H](Cc3c[nH]c4ccccc34)C(=O)N[C@@H](C)C(=O)N[C@H](C(=O)NCC(=O)N[C@@H](Cc3c[nH]cn3)C(=O)N[C@@H](CC(C)C)[C@@H](O)CC(=O)N[C@@H](CC(C)C)C(N)=O)C(C)C)CCC12 (stereo partly shown) [8a]" readout_value="17 %ID/g"

----------
assay: in vivo
experimental-context: Balb/c nu/nu, mouse, tumour (PC-3 xenograft), 48 pmol, total radioactivity
measurement-type: tissue uptake at 1 h (%ID/g)

compound="CC1=NNC(c2ccc(CNC(=O)c3ccc(F)nc3)cc2)=C2CCC[C@H](OC(=O)NCCOCCOCCC(=O)N[C@H](Cc3ccccc3)C(=O)N[C@@H](CCC(N)=O)C(=O)N[C@@H](Cc3c[nH]c4ccccc34)C(=O)N[C@@H](C)C(=O)N[C@H](C(=O)NCC(=O)N[C@@H](Cc3c[nH]cn3)C(=O)N[C@@H](CC(C)C)[C@@H](O)CC(=O)N[C@@H](CC(C)C)C(N)=O)C(C)C)CCC12 (stereo partly shown)" measurement_type="tissue uptake at 1 h" readout_value=2.4

----------
assay: in vivo
experimental-context: Balb/c nu/nu, mouse, tumour / bone, 48 pmol, total radioactivity
Experimental: [^18F]MeTz-PEG2-RM26 (8a) (30 kBq, 40 pmol) was evaluated in NMRI mice to assess the biodistribution in normal organs. A group of NMRI mice (n = 3) was additionally co-injected with 5 nmol of NOTA-PEG2-RM26 to block GRPR. Mice were euthanised at 30 min post-injection (pi) and the organs of interest were collected, weighed, and measured for their radioactivity content. […] The collected organs were weighed and the radioactivity content was measured in each organ.
measurement-type: tissue to tissue ratio at 2 h

compound="CC1=NNC(c2ccc(CNC(=O)c3ccc(F)nc3)cc2)=C2CCC[C@H](OC(=O)NCCOCCOCCC(=O)N[C@H](Cc3ccccc3)C(=O)N[C@@H](CCC(N)=O)C(=O)N[C@@H](Cc3c[nH]c4ccccc34)C(=O)N[C@@H](C)C(=O)N[C@H](C(=O)NCC(=O)N[C@@H](Cc3c[nH]cn3)C(=O)N[C@@H](CC(C)C)[C@@H](O)CC(=O)N[C@@H](CC(C)C)C(N)=O)C(C)C)CCC12 (stereo partly shown)" readout_value=5

----------
assay: in vivo
experimental-context: Balb/c nu/nu, mouse, tumour (PC-3 xenograft), 48 pmol, total radioactivity
Description: [^18F]MeTz-PEG2-RM26 (8a) (30 kBq, 40 pmol) was evaluated in NMRI mice to assess the biodistribution in normal organs. A group of NMRI mice (n = 3) was additionally co-injected with 5 nmol of NOTA-PEG2-RM26 to block GRPR. Mice were euthanised at 30 min post-injection (pi) and the organs of interest were collected, weighed, and measured for their radioactivity content. […] The collected organs were weighed and the radioactivity content was measured in each organ.
measurement-type: tissue uptake at 2 h

compound="CC1=NNC(c2ccc(CNC(=O)c3ccc(F)nc3)cc2)=C2CCC[C@H](OC(=O)NCCOCCOCCC(=O)N[C@H](Cc3ccccc3)C(=O)N[C@@H](CCC(N)=O)C(=O)N[C@@H](Cc3c[nH]c4ccccc34)C(=O)N[C@@H](C)C(=O)N[C@H](C(=O)NCC(=O)N[C@@H](Cc3c[nH]cn3)C(=O)N[C@@H](CC(C)C)[C@@H](O)CC(=O)N[C@@H](CC(C)C)C(N)=O)C(C)C)CCC12 (stereo partly shown)" readout_value="2.7 %ID/g"

----------
assay: in vivo
experimental-context: Balb/c nu/nu, mouse, tumour, 48 pmol, total radioactivity
measurement-type: tissue uptake at 1 h (%ID/g)

compound="CC1=NNC(c2ccc(CNC(=O)c3ccc(F)nc3)cc2)=C2CCC[C@H](OC(=O)NCCOCCOCCC(=O)N[C@H](Cc3ccccc3)C(=O)N[C@@H](CCC(N)=O)C(=O)N[C@@H](Cc3c[nH]c4ccccc34)C(=O)N[C@@H](C)C(=O)N[C@H](C(=O)NCC(=O)N[C@@H](Cc3c[nH]cn3)C(=O)N[C@@H](CC(C)C)[C@@H](O)CC(=O)N[C@@H](CC(C)C)C(N)=O)C(C)C)CCC12 (stereo partly shown)" measurement_type="tissue uptake at 1 h" reading_unit=%ID/g readout_value=2.4

----------
assay: in vivo
experimental-context: Balb/c nu/nu, mouse, tumour / pancreas, 48 pmol, total radioactivity
measurement-type: tissue to tissue ratio at 1 h

molecule="CC1=NNC(c2ccc(CNC(=O)c3ccc(F)nc3)cc2)=C2CCC[C@H](OC(=O)NCCOCCOCCC(=O)N[C@H](Cc3ccccc3)C(=O)N[C@@H](CCC(N)=O)C(=O)N[C@@H](Cc3c[nH]c4ccccc34)C(=O)N[C@@H](C)C(=O)N[C@H](C(=O)NCC(=O)N[C@@H](Cc3c[nH]cn3)C(=O)N[C@@H](CC(C)C)[C@@H](O)CC(=O)N[C@@H](CC(C)C)C(N)=O)C(C)C)CCC12 (stereo partly shown)" readout_value=0.15

----------
assay: in vivo
experimental-context: Balb/c nu/nu, mouse, kidneys, 48 pmol, total radioactivity
measurement-type: tissue uptake at 2 h

molecule="CC1=NNC(c2ccc(CNC(=O)c3ccc(F)nc3)cc2)=C2CCC[C@H](OC(=O)NCCOCCOCCC(=O)N[C@H](Cc3ccccc3)C(=O)N[C@@H](CCC(N)=O)C(=O)N[C@@H](Cc3c[nH]c4ccccc34)C(=O)N[C@@H](C)C(=O)N[C@H](C(=O)NCC(=O)N[C@@H](Cc3c[nH]cn3)C(=O)N[C@@H](CC(C)C)[C@@H](O)CC(=O)N[C@@H](CC(C)C)C(N)=O)C(C)C)CCC12 (stereo partly shown)" measurement_type="tissue uptake at 2 h" readout_value="1.9 %ID/g"

----------
assay: in vivo
experimental-context: Balb/c nu/nu, mouse, tumour / lungs, 48 pmol, total radioactivity
measurement-type: tissue to tissue ratio at 2 h

compound="CC1=NNC(c2ccc(CNC(=O)c3ccc(F)nc3)cc2)=C2CCC[C@H](OC(=O)NCCOCCOCCC(=O)N[C@H](Cc3ccccc3)C(=O)N[C@@H](CCC(N)=O)C(=O)N[C@@H](Cc3c[nH]c4ccccc34)C(=O)N[C@@H](C)C(=O)N[C@H](C(=O)NCC(=O)N[C@@H](Cc3c[nH]cn3)C(=O)N[C@@H](CC(C)C)[C@@H](O)CC(=O)N[C@@H](CC(C)C)C(N)=O)C(C)C)CCC12 (stereo partly shown)" measurement_type="tissue to tissue ratio at 2 h" readout_value=2.2

----------
assay: in vivo
experimental-context: NMRI, mouse, rest of the carcass, total radioactivity
measurement-type: tissue uptake dose at 0.5 h (%ID)

molecule="CC1=NNC(c2ccc(CNC(=O)c3ccc(F)nc3)cc2)=C2CCC[C@H](OC(=O)NCCOCCOCCC(=O)N[C@H](Cc3ccccc3)C(=O)N[C@@H](CCC(N)=O)C(=O)N[C@@H](Cc3c[nH]c4ccccc34)C(=O)N[C@@H](C)C(=O)N[C@H](C(=O)NCC(=O)N[C@@H](Cc3c[nH]cn3)C(=O)N[C@@H](CC(C)C)[C@@H](O)CC(=O)N[C@@H](CC(C)C)C(N)=O)C(C)C)CCC12 (stereo partly shown)" reading_unit=%ID readout_value=16

----------
assay: in vivo
experimental-context: Balb/c nu/nu, mouse, lungs, 48 pmol, total radioactivity
measurement-type: tissue uptake at 1 h (%ID/g)

molecule="CC1=NNC(c2ccc(CNC(=O)c3ccc(F)nc3)cc2)=C2CCC[C@H](OC(=O)NCCOCCOCCC(=O)N[C@H](Cc3ccccc3)C(=O)N[C@@H](CCC(N)=O)C(=O)N[C@@H](Cc3c[nH]c4ccccc34)C(=O)N[C@@H](C)C(=O)N[C@H](C(=O)NCC(=O)N[C@@H](Cc3c[nH]cn3)C(=O)N[C@@H](CC(C)C)[C@@H](O)CC(=O)N[C@@H](CC(C)C)C(N)=O)C(C)C)CCC12 (stereo partly shown)" reading_unit=%ID/g readout_value=1.3
